Items are presented alongside their recorded melting point.

| molecule | test_result |
| --- | --- |
| CC(=NO)C(C)(C)NCCCNC(C)(C)C(COCC(O)Cn1ccnc1[N+](=O)[O-])=NO (stereo not drawn) [Example 31] | 134 to 135 °C |
| CC(=NO)C(C)(C)NCC(F)(F)CNC(C)(C)C(CCn1ccnc1[N+](=O)[O-])=NO [Example 30] | 90 to 92 °C |
| CC(=NO)C(C)(C)NCCCNC(C)(C)C(Cn1cc(C)nc1[N+](=O)[O-])=NO [Example 27] | 140 to 141 °C |
| CC(=NO)C(C)(C)NCC(CNC(C)(C)C(C)=NO)CC(O)Cn1ccnc1[N+](=O)[O-] (stereo not drawn) [Example 26] | 185 to 187 °C |
| CC(=NO)C(C)(C)NCC(C)CNC(C)(C)C(Cn1ccnc1[N+](=O)[O-])=NO (stereo not drawn) [Example 23] | 167 to 168 °C |
| CCOCC(=NO)C(C)(C)NCCCNC(C)(C)C(Cn1ccnc1[N+](=O)[O-])=NO [Example 25] | 122 to 123 °C |

Quick note, melting point for CC(=NO)C(C)(C)NCC(O)CNC(C)(C)C(CCn1ccnc1[N+](=O)[O-])=NO (stereo not drawn) [Example 32] landed at 62 to 64 °C

The molecule listed as CC(=NO)C(C)(C)NCCCNC(C)(C)C(Cn1c(C)cnc1[N+](=O)[O-])=NO [Example 28] has a reported melting point of 150 to 152 °C

Entry COC(=O)CCC(=NO)C(C)(C)NCCCNC(C)(C)C(Cn1ccnc1[N+](=O)[O-])=NO [Example 24] ; melting point = 137 to 139 °C

###

Parameter Epc(V): see the listing below.
# assay: Determination of reduction potential by cyclic voltammetry
# Assay type: physicochemical
# applied_conditions: cyclic voltammetry in dimethylformamide at Hg, vs. Ag/AgNO3; second reduction listed
Quick note: give the figure in V, leave out the unit.

The recorded Epc(V) for CC1=[N+](O)[99Tc-]23(=[O])[N](CCC[N]2C1(C)C)C(C)(C)C(Cn1cnc([N+](=O)[O-])c1)=[N+]3[O-] is −2.02

// sample CC1=[N+](O)[99Tc-]23(=[O])[N](CC(O)C[N]2C1(C)C)C(C)(C)C(Cn1ccnc1[N+](=O)[O-])=[N+]3[O-] (stereo not shown) , its Epc(V) was −1.96

Record CC1=[N+](O)[99Tc-]23(=[O])[N](CCC[N]2C1(C)C)C(C)(C)C(Cn1ccnc1[N+](=O)[O-])=[N+]3[O-] . Reported Epc(V): −1.99

// Epc(V) lookup, compound = CC1=[N+](O)[99Tc-]23(=[O])[N](CCC[N]2C1(C)C)C(C)(C)C(CCn1ccnc1[N+](=O)[O-])=[N+]3[O-] , result: −2.07

###

# assay: Determination of reduction potential by cyclic voltammetry
# Format: physicochemical
# applied_conditions: cyclic voltammetry in dimethylformamide at Hg, vs. Ag/AgNO3; first or only reduction listed
reported_metric: Epc(V)
In your response, the unit should come after the numeric value.

| compound | test_result |
| --- | --- |
| CC1=[N+](O)[99Tc-]23(=[O])[N](CCC[N]2C1(C)C)C(C)(C)C(Cn1ccnc1[N+](=O)[O-])=[N+]3[O-] | −1.49 V |

The compound identified as CC(=NO)C(C)(C)NCCCNC(C)(C)C(CCn1ccnc1[N+](=O)[O-])=NO registered its Epc(V) at −1.54 V

Per the record, CC(=NO)C(C)(C)NCC(CNC(C)(C)C(C)=NO)NC(=O)Cn1ccnc1[N+](=O)[O-] (stereo not shown) has Epc(V) of −1.52 V

Form: compound = CC1=[N+](O)[99Tc-]23(=[O])[N](CC(O)C[N]2C1(C)C)C(C)(C)C(Cn1ccnc1[N+](=O)[O-])=[N+]3[O-] (stereo not shown) ; Epc(V) = −1.48 V
